Target: T1, human FcRn/b2M (human, UniProt P61769 21-119, biotinylated)
T1 construct: bought recombinant biotinylated protein (ACRO FCM-H82W4 or Immunitrack ITF01); also called hFcRn; hFcRn/hb2M
T1 sequence (chain, as listed by the source limits assumed, chain 1 of 2): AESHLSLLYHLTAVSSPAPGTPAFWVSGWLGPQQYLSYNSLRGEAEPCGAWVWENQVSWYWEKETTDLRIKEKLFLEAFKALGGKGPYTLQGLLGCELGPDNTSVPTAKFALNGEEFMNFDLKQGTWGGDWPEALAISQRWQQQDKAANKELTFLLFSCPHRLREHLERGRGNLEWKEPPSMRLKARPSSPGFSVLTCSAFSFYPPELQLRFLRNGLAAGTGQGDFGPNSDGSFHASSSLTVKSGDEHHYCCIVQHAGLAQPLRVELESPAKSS
T1 sequence (P61769 21-119 limits assumed, chain 2 of 2): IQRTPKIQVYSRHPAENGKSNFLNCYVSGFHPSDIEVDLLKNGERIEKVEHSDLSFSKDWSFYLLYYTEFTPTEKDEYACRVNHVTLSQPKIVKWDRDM
Experiment: SPR pH 6.0
ASSAY ENDPOINT: Kd (nM)

1. T026301100 (VHH, name in Kabat numbering, tagless) VHH: EVQLVESGGGVVQPGGSLRLSCAASGFTFSSYDMYWVRQAPGKGLEWVSAISQGGGSTDYADSVKGRFTISRDNSKNTLYLQMNSLRPEDTALYYCAADTLYTDLTWYSYWGQGTLVTVSS
140
2. T026301117 (VHH, name in Kabat numbering, tagless) VHH: EVQLVESGGGVVQPGGSLRLSCAASGFTFSEYAMYWVRQAPGKGLEWVSAISSGGGSTDYADSVKGRFTISRDNSKNTLYLQMNSLRPEDTALYYCAADTLYTSLTSYSYWGQGTLVTVSS
170
